B1: C22orf31 (parent)
chain: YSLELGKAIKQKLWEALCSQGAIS

# Variants of: B1
# protocol.notes: protein stability index of a GFP-peptide fusion (GPS, HEK-293T) (PSI 1-6); higher = more stable;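 note: lentivirally expressed fusions sorted by FACS into six bins by GFP to DsRed ratio, PSI derived from sequencing read proportions per bin multiplied by bin number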
# setup.conditions: c terminus: a fixed tail appended
Response key: yes means protein stability index >= 2; no means protein stability index < 2.

The following variants have reported results that may help.
   mutation_key  category_label
0           S2P             yes
1           G6Y             yes
2          E15S             yes
3           L5A              no
4          K12A             yes
5           L3T              no
6          K10D              no
7           L5F             yes

Challenge: Answer whether protein stability index of `A8F` is greater than or equal to 2.
Response given: no

Challenge: Answer whether protein stability index of `L13E` is greater than or equal to 2.
Response given: yes

Challenge: Answer whether protein stability index of `I23M` is greater than or equal to 2.
Response given: yes

Challenge: Answer whether protein stability index of `A8I` is greater than or equal to 2.
Response given: yes

Challenge: Answer whether protein stability index of `E4M` is greater than or equal to 2.
Response given: yes

The reported measurements were obtained from the supplement of paper PMC10567573.
